# merged literature set: log10 of IC50 with Glycogen synthase kinase-3 alpha (Homo sapiens)
Lab note - IC50 converted to log10 from values in nM.

Some compounds with recorded log10 of IC50:
compound	readout_name	val
Cc1n[nH]c2cc(Nc3nccc(Oc4ccc(NC(=O)Nc5cc(C(C)(C)C)nn5-c5ccc(OCCN6CCOCC6)cc5)c5ccccc45)n3)ccc12	log10 of IC50	3.54
C#Cc1cc(Nc2nccc(Oc3ccc(NC(=O)Nc4cc(C(C)(C)C)nn4-c4ccc(C)cc4)c4ccccc34)n2)cc(C(=O)NCCOCCOCCOCCOC)c1	log10 of IC50	3.31
CNC(=O)c1cc(Nc2cc(Oc3ccc(NC(=O)Nc4cc(C(C)(C)C)cc(P(C)(C)=O)c4OC)c4ccccc34)ccn2)cc(OCCN2CCOCC2)c1	log10 of IC50	2.98
N#Cc1ccc(-c2ccncc2NC(=O)c2ccnn3cc(-c4ccccc4)nc23)cc1	log10 of IC50	-0.52
COc1cc(Nc2cc(Oc3ccc(NC(=O)Nc4cc(C(C)(C)C)cc(CC(N)=O)c4OC)c4ccccc34)ccn2)ccn1	log10 of IC50	3.42
COc1cc(Nc2cc(Oc3ccc(NC(=O)Nc4cc(C(C)(C)C)cc(P(C)(C)=O)c4OC)c4ccccc34)ccn2)ccc1C(=O)NCCN(C)C	log10 of IC50	3.25

[in] Report its log10 of IC50 with Glycogen synthase kinase-3 alpha (Homo sapiens) as the test system: COc1cc(Nc2cc(Oc3ccc(NC(=O)Nc4cc(C(C)(C)C)cc(CNC(C)=O)c4OC)c4ccccc34)ccn2)cc(C(=O)NCCN2CCOCC2)c1
[out] 2.92

[in] Report its log10 of IC50 with Glycogen synthase kinase-3 alpha (Homo sapiens) as the test system: COc1c(NC(=O)Nc2ccc(Oc3ccnc(Nc4ccccc4)n3)c3ccccc23)cc(C(C)(C)C)cc1C(=O)NC1COC1
[out] 2.95

====

# merged literature set: IC50 with Glycogen synthase kinase-3 alpha (Homo sapiens)

molecule	readout_name	val
CN1CC(=O)N2CCN(CCc3cc(ccn3)-c3ncnc(n3)Nc3cccc(c3)C1)CC2	IC50	0.1 to 1 µM
CC(C)(C)c1cc(NC(=O)Nc2ccc(Oc3ccnc(Nc4ccccc4)n3)c3ccccc23)n(-c2ccc(CP(C)(C)=O)cc2)n1	IC50	0.183 µM

[in] Report its IC50 with Glycogen synthase kinase-3 alpha (Homo sapiens) as the test system: COCCOCCOCCNC(=O)c1ccc(Nc2cc(Oc3ccc(NC(=O)Nc4cc(C(C)(C)C)cc(NS(C)(=O)=O)c4OC)c4ccccc34)ccn2)cc1OC
[out] 1.34 µM

[in] Report its IC50 with Glycogen synthase kinase-3 alpha (Homo sapiens) as the test system: C[C@H]1NCc2cccc(c2)Nc2ncnc(n2)-c2cccc(c2)CCCNC1=O
[out] 0.01 to 0.1 µM

[in] Report its IC50 with Glycogen synthase kinase-3 alpha (Homo sapiens) as the test system: CC(C)(C)c1cc(NC(=O)Nc2ccc(Oc3ccnc(Nc4ccc5[nH]ncc5c4)n3)c3ccccc23)n(-c2ccc(=O)n(CCN3CCOCC3)c2)n1
[out] 2.43 µM

[in] Report its IC50 with Glycogen synthase kinase-3 alpha (Homo sapiens) as the test system: COc1cccc(Nc2cc(Oc3ccc(NC(=O)Nc4cc(C(C)(C)C)cc(CNC(C)=O)c4OC)c4ccccc34)ccn2)c1
[out] 7.7 µM

[in] Report its IC50 with Glycogen synthase kinase-3 alpha (Homo sapiens) as the test system: CC(C)(C)c1cc(NC(=O)Nc2ccc(Oc3ccnc(Nc4ccccc4)n3)c3ccccc23)n(-c2ccc(P(C)(=O)O)cc2)n1
[out] 0.076 µM

[in] Report its IC50 with Glycogen synthase kinase-3 alpha (Homo sapiens) as the test system: COc1cc(CO)cc(Nc2cc(Oc3ccc(NC(=O)Nc4cc(C(C)(C)C)cc(P(C)(C)=O)c4OC)c4ccccc34)ccn2)c1
[out] 2.22 µM

[in] Report its IC50 with Glycogen synthase kinase-3 alpha (Homo sapiens) as the test system: COc1cc(Nc2cc(Oc3ccc(NC(=O)Nc4cc(C(C)(C)C)cc(CC(N)=O)c4OC)c4ccccc34)ccn2)cc(S(=O)(=O)N(C)C)c1
[out] > 13.2 µM

====

# merged literature set: IC50 with UniProtKB P49840

Some compounds with recorded IC50:
smiles_str	IC50
COCCOCCOCCNC(=O)c1cc(Nc2cc(Oc3ccc(NC(=O)Nc4cc(C(C)(C)C)nn4-c4ccc(N(C)C)cc4)c4ccccc34)ccn2)cc(OC)c1	12 µM
O=C1CCN2CCN(CC2)Cc2cccc(c2)Nc2ncnc(n2)-c2ccnc(c2)NCCN1	0.1 to 1 µM

[in] Report its IC50 with UniProtKB P49840 as the test system: COc1c(NC(=O)Nc2ccc(Oc3ccnc(N(C)C)n3)c3ccccc23)cc(C(C)(C)C)cc1P(C)(C)=O
[out] > 17.8 µM

[in] Report its IC50 with UniProtKB P49840 as the test system: COc1c(NC(=O)Nc2ccc(Oc3ccnc(Nc4ccccc4)c3)c3ccccc23)cc(C(C)(C)C)cc1C(=O)N[C@H]1CCOC1
[out] 6.29 µM

====

# merged literature set: IC50 with Glycogen synthase kinase-3 alpha (Homo sapiens)

Some molecules with recorded IC50:
smiles_str	tested_system	IC50
COc1ccccc1-c1cn2nccc(C(=O)Nc3cnccc3N3CCC(F)(F)CC3)c2n1	Glycogen synthase kinase-3 alpha (Homo sapiens)	0.0006 µM
C#CC(C)(C)c1cc(NC(=O)Nc2ccc(Oc3ccnc(Nc4cc(OC(F)(F)F)cc(C(=O)NCCN5CCOCC5)c4)n3)c3ccccc23)n(-c2ccc(C)cc2)n1	Glycogen synthase kinase-3 alpha (Homo sapiens)	5.44 µM

Note: attention shifts to another entry.
[in] Report its IC50 with Glycogen synthase kinase-3 alpha (Homo sapiens) as the test system: COc1c(NC(=O)Nc2ccc(Oc3ccnc(Nc4ccc(OCCN5CCOCC5)c(C#N)c4)c3)c3ccccc23)cc(C(C)(C)C)cc1NS(C)(=O)=O
[out] 4.34 µM

====

# merged literature set: IC50 with Glycogen synthase kinase-3 alpha (Homo sapiens, UniProt P49840)

[in] Report its IC50 with Glycogen synthase kinase-3 alpha (Homo sapiens, UniProt P49840) as the test system: O=C1CCN2CCN(CCCc3cc(ccn3)-c3ncnc(n3)Nc3cccc(c3)CCN1)CC2
[out] 10 to 100 nM

[in] Report its IC50 with Glycogen synthase kinase-3 alpha (Homo sapiens, UniProt P49840) as the test system: COc1c(C[S+](C)[O-])cc(C(C)(C)C)cc1NC(=O)Nc1ccc(Oc2ccnc(Nc3ccccc3)c2)c2ccccc12 (stereo not shown)
[out] 9620 nM

[in] Report its IC50 with Glycogen synthase kinase-3 alpha (Homo sapiens, UniProt P49840) as the test system: C#CC(C)(C)c1cc(NC(=O)Nc2ccc(Oc3ccnc(Nc4cc(C(=O)NCCN5CCOCC5)cc(C(F)(F)F)c4)n3)c3ccccc23)n(-c2ccc(C)cc2)n1
[out] 2310 nM

[in] Report its IC50 with Glycogen synthase kinase-3 alpha (Homo sapiens, UniProt P49840) as the test system: O=C(Nc1cncnc1)c1ccnc(Nc2cccc(-c3ccccc3)n2)n1
[out] 7.2 nM

[in] Report its IC50 with Glycogen synthase kinase-3 alpha (Homo sapiens, UniProt P49840) as the test system: O=C(Nc1cnccc1N1CCC(F)(F)CC1)c1ccnn2ccnc12
[out] 2 nM

[in] Report its IC50 with Glycogen synthase kinase-3 alpha (Homo sapiens, UniProt P49840) as the test system: COc1cc(Nc2cc(Oc3ccc(NC(=O)Nc4cc(C(C)(C)C)cc(NS(C)(=O)=O)c4OC)c4ccccc34)ccn2)ccc1C(=O)NCCN1CC[S+]([O-])CC1
[out] 1100 nM

[in] Report its IC50 with Glycogen synthase kinase-3 alpha (Homo sapiens, UniProt P49840) as the test system: CNC(=O)c1cc(NC(=O)Nc2ccc(Oc3ccnc(Nc4cc(OC)cc(OCCOCCOCCOC)c4)n3)c3ccccc23)cc(C(C)(C)C)c1
[out] 733 nM

====

# merged literature set: pIC50 with Glycogen synthase kinase-3 alpha (Homo sapiens)
# reply with the number alone; pIC50 is -log10 of concentration in mol/L

compound	val
O=C(Nc1cnc(Cl)cc1N1CCC(F)(F)CC1)c1ccnn2cc(-c3ccccc3)nc12	8.54
COc1cc(Nc2cc(Oc3ccc(NC(=O)Nc4cc(C(C)(C)C)cc(C(N)=O)c4OC)c4ccccc34)ccn2)ccc1C(=O)O	6.86
COc1c(NC(=O)Nc2ccc(Oc3ccnc(Nc4cccc(OS(C)(=O)=O)c4)n3)c3ccccc23)cc(C(C)(C)C)cc1P(C)(C)=O	6.55
COc1ccccc1Nc1nccc(Oc2ccc(NC(=O)Nc3cc(C(C)C)nn3-c3cccc(CP(C)(C)=O)c3)c3ccccc23)n1	5.05
COc1cc(Nc2nccc(Oc3ccc(NC(=O)Nc4cc(C(C)(C)C)nn4C)c4ccccc34)n2)cc(S(=O)(=O)C2CC2)c1	5.71
COCCOCCOCCOc1cc(Nc2nccc(Oc3ccc(NC(=O)Nc4cc(C(C)(C)C)cc(N)c4OC)c4ccccc34)n2)cc(OC)c1	5.72
C#Cc1cc(Nc2cc(Oc3ccc(NC(=O)Nc4cc(C(C)(C)C)cc(NS(C)(=O)=O)c4OC)c4ccccc34)ccn2)cc(C(=O)N[C@H](C)COCCOCCOC)c1	4.93
COCCOCCOCCNC(=O)c1cc(Nc2cc(Oc3ccc(NC(=O)Nc4cc(C(C)(C)C)cc([S+](C)[O-])c4OC)c4ccccc34)ccn2)cc(OC)c1 (centres unmarked)	5.57
CC(C)(C)c1cc(NC(=O)Nc2ccc(Oc3ccnc(N4CCC[C@@H]4CO)n3)c3ccccc23)n(-c2ccc(P(C)(C)=O)cc2)n1	6.01
O=C(Nc1cnc(F)cc1N1CCC(F)(F)CC1)c1ccnc(Nc2ccc(C(F)(F)F)cc2)n1	8.51

[in] Report its pIC50 with Glycogen synthase kinase-3 alpha (Homo sapiens) as the test system: COc1c(NC(=O)Nc2ccc(Oc3ccnc(Nc4cc(C)c5[nH]ncc5c4)n3)c3ccccc23)cc(C(C)(C)C)cc1P(C)(C)=O
[out] 6.07

[in] Report its pIC50 with Glycogen synthase kinase-3 alpha (Homo sapiens) as the test system: Cc1cc(Nc2cc(Oc3ccc(NC(=O)Nc4cc(C(C)(C)C)nn4-c4ccc(OCCN(C)C)cc4)c4ccccc34)ccn2)cc2cn[nH]c12
[out] 5.90

[in] Report its pIC50 with Glycogen synthase kinase-3 alpha (Homo sapiens) as the test system: COc1c(NC(=O)Nc2ccc(Oc3ccnc(Nc4ccccc4)c3)c3ccccc23)cc(C(C)(C)C)cc1C(=O)N[C@@H]1CCOC1
[out] 5.31

[in] Report its pIC50 with Glycogen synthase kinase-3 alpha (Homo sapiens) as the test system: COc1c(NC(=O)Nc2ccc(Oc3ccnc(Nc4ccccc4)c3)c3ccccc23)cc(C(C)(C)C)cc1C(=O)NC1CCOCC1
[out] 4.90

[in] Report its pIC50 with Glycogen synthase kinase-3 alpha (Homo sapiens) as the test system: C#Cc1cc(Nc2nccc(Oc3ccc(NC(=O)Nc4cc(C(C)(C)C)nn4-c4ccc(OC)cc4OC)c4ccccc34)n2)cc(C(=O)NCCOCCOCCOC)c1
[out] 5.67

[in] Report its pIC50 with Glycogen synthase kinase-3 alpha (Homo sapiens) as the test system: CCP(=O)(CC)Cc1cccc(-n2nc(C(C)(C)C)cc2NC(=O)Nc2ccc(Oc3ccnc(Nc4cc(C)c5[nH]ncc5c4)n3)c3ccccc23)c1
[out] 5.47

[in] Report its pIC50 with Glycogen synthase kinase-3 alpha (Homo sapiens) as the test system: C#Cc1cc(Nc2cc(Oc3ccc(NC(=O)Nc4cc(C(C)(C)C)cc(NS(C)(=O)=O)c4OC)c4ccccc34)ccn2)cc(C(=O)NCCN2CCN(C)CC2)c1
[out] 5.45

[in] Report its pIC50 with Glycogen synthase kinase-3 alpha (Homo sapiens) as the test system: CC(C)Oc1ccncc1NC(=O)c1ccnn2c(NCC3CC3)cnc12
[out] 8.47

[in] Report its pIC50 with Glycogen synthase kinase-3 alpha (Homo sapiens) as the test system: COc1cc(Nc2cc(Oc3ccc(NC(=O)Nc4cc(C(C)(C)C)cc(P(C)(C)=O)c4OC)c4ccccc34)ccn2)cc(C(N)=O)c1
[out] 5.67

[in] Report its pIC50 with Glycogen synthase kinase-3 alpha (Homo sapiens) as the test system: COc1cc(Nc2cc(Oc3ccc(NC(=O)Nc4cc(C(C)(C)C)cc(CC(N)=O)c4OC)c4ccccc34)ccn2)cc(C(=O)NCCN2CCOCC2)c1
[out] 5.80

[in] Report its pIC50 with Glycogen synthase kinase-3 alpha (Homo sapiens) as the test system: COc1cc(Nc2cc(Oc3ccc(NC(=O)Nc4cc(C(C)(C)C)cc(CC(N)=O)c4OC)c4ccccc34)ccn2)ccc1C(=O)NCCN1CCOCC1
[out] 5.64

[in] Report its pIC50 with Glycogen synthase kinase-3 alpha (Homo sapiens) as the test system: COc1c(NC(=O)Nc2ccc(Oc3ccnc(Nc4ccccc4)n3)c3ccccc23)cc(C(C)(C)C)cc1C(=O)NCCN1CCCC1
[out] 5.51
